The values you see were collected from ChEMBL document CHEMBL1614632.

assay: clinical; settings: human, in vivo, iv
Answer no (0) if fraction unbound is under 0.5, and yes (1) if it is 0.5 or more.

# compound, cat
records = [
    ("CC(C)N(CCC(C(N)=O)(c1ccccc1)c1ccccn1)C(C)C (stereo not drawn) [DISOPYRAMIDE]", "no (0)"),
    ("O=C(NC1CCN(CCc2c[nH]c3ccccc23)CC1)c1ccccc1 [INDORAMIN]", "no (0)"),
    ("C=CCN1CC[C@]23c4c5ccc(O)c4O[C@H]2C(=O)CC[C@@]3(O)[C@H]1C5 [NALOXONE]", "yes (1)"),
    ("CCc1cccc2cc(C(O)CNC(C)(C)C)oc12 (stereo not drawn) [BUFURALOL]", "no (0)"),
    ("C[C@@H](CN1CC(=O)NC(=O)C1)N1CC(=O)NC(=O)C1 [DEXRAZOXANE]", "yes (1)"),
    ("Clc1cccc(Cl)c1N=C1NCCN1 [CLONIDINE]", "yes (1)"),
    ("COc1cc(CC2c3c(cc(OC)c(OC)c3OC)CC[N+]2(C)CCCOC(=O)CCC(=O)OCCC[N+]2(C)CCc3cc(OC)c(OC)c(OC)c3C2Cc2cc(OC)c(OC)c(OC)c2)cc(OC)c1OC (stereo not drawn) [DOXACURIUM]", "yes (1)"),
    ("Fc1ccc([C@@H]2CCNC[C@H]2COc2ccc3c(c2)OCO3)cc1 [PAROXETINE]", "no (0)"),
    ("CC#CCC(C)[C@H](O)/C=C/[C@@H]1[C@H]2C/C(=C/CCCC(=O)O)C[C@H]2C[C@H]1O (stereo partly drawn) [ILOPROST]", "no (0)"),
    ("CN1CCN(CCCCN2C(=O)CN(/N=C/c3ccc(-c4ccc(Cl)cc4)o3)C2=O)CC1 [AZIMILIDE]", "no (0)"),
    ("COc1ccc(-c2nc3ccc(C4=NNC(=O)CC4C)cc3[nH]2)cc1 (stereo not drawn) [PIMOBENDAN]", "no (0)"),
    ("CN(C)CCCN1c2ccccc2Sc2ccccc21 [PROMAZINE]", "no (0)"),
    ("CN[C@@H](C)Cc1ccccc1 [METHAMPHETAMINE]", "yes (1)"),
    ("CNC(=O)c1cccc2c(Nc3ccc(NS(C)(=O)=O)cc3OC)c3cccc(C)c3nc12 [ASULACRINE]", "no (0)"),
    ("NC(N)=Nc1nc(CSCCC(N)=NS(N)(=O)=O)cs1 [FAMOTIDINE]", "yes (1)"),
    ("CC(Oc1ccccc1)C(=O)N[C@@H]1C(=O)N2[C@@H]1SC(C)(C)[C@@H]2C(=O)O (stereo partly drawn) [PHENETHICILLIN]", "no (0)"),
    ("NNC(=O)c1ccncc1 [ISONIAZID]", "yes (1)"),
    ("C[C@@H](O)[C@H]1C(=O)N2C(C(=O)O)=C(S[C@@H]3CN[C@H](C(=O)N(C)C)C3)[C@H](C)[C@H]12 [MEROPENEM]", "yes (1)"),
    ("CCC(=O)O[C@]1(C(=O)SCF)[C@H](C)C[C@H]2[C@@H]3C[C@H](F)C4=CC(=O)C=C[C@]4(C)[C@@]3(F)[C@@H](O)C[C@@]21C [FLUTICASONE PROPIONATE]", "no (0)"),
    ("Nc1c2c(nc3ccccc13)CCCC2 [TACRINE]", "no (0)"),
    ("CCCc1cc(=O)[nH]c(=S)[nH]1 [PROPYLTHIOURACIL]", "no (0)"),
    ("CN(C)/N=N/c1[nH]cnc1C(N)=O [DACARBAZINE]", "yes (1)"),
    ("NC[C@H]1O[C@H](O[C@H]2[C@H](O)[C@@H](O[C@H]3O[C@H](CO)[C@@H](O)[C@H](N)[C@H]3O)[C@H](N)C[C@@H]2N)[C@H](N)C[C@@H]1O [TOBRAMYCIN]", "yes (1)"),
    ("CCC(C)(C)NCC(O)COc1ccccc1C(=O)CCc1ccccc1 (stereo not drawn) [DIPRAFENONE]", "no (0)"),
    ("CO[C@@]1(NC(=O)Cc2cccs2)C(=O)N2C(C(=O)O)=C(COC(N)=O)CS[C@@H]21 [CEFOXITIN]", "yes (1)"),
    ("C=CC[N+]1([C@H]2C[C@H]3[C@@H]4CC[C@H]5C[C@H](O)[C@@H](N6CCOCC6)C[C@]5(C)[C@H]4CC[C@]3(C)[C@H]2OC(C)=O)CCCC1 [ROCURONIUM]", "yes (1)"),
    ("CN[C@@H]1[C@@H](O)[C@@H](O[C@@H]2[C@@H](O)[C@H](O[C@H]3OC(CN)=CC[C@H]3N)[C@@H](N)C[C@H]2N)OC[C@]1(C)O [SISOMICIN]", "no (0)"),
    ("CCCC(C)(COC(N)=O)COC(N)=O [MEPROBAMATE]", "yes (1)"),
    ("CC(C)(O/N=C(\\C(=O)N[C@@H]1C(=O)N2C(C(=O)[O-])=C(C[n+]3ccccc3)CS[C@H]12)c1csc(N)n1)C(=O)O [CEFTAZIDIME]", "yes (1)"),
    ("CNCCCC12CCC(c3ccccc31)c1ccccc12 [MAPROTILINE]", "no (0)"),
    ("CCC(=O)OCC(=O)[C@@]1(OC(=O)CC)[C@@H](C)C[C@H]2[C@@H]3CCC4=CC(=O)C=C[C@]4(C)[C@@]3(Cl)[C@@H](O)C[C@@]21C [BECLOMETHASONE DIPROPIONATE]", "no (0)"),
    ("CC(=O)Oc1ccccc1C(=O)O [ASPIRIN]", "yes (1)"),
]

---

assay: clinical; settings: human, in vivo, iv, Vdss
measured.endpoint: log10 of Vd (log10 of the value in L/kg)

# compound, readout.value
records = [
    ("NCCCNc1ccc2c(CNCCO)nn3c4c(O)ccc(O)c4c(=O)c1c23", 1.08),
    ("CO[C@H]1/C=C/O[C@@]2(C)Oc3c(C)c(O)c4c(c3C2=O)C2=NC3(CCN(CC(C)C)CC3)NC2=C(NC(=O)/C(C)=C\\C=C\\[C@H](C)[C@H](O)[C@@H](C)[C@@H](O)[C@@H](C)[C@H](OC(C)=O)[C@@H]1C)C4=O", 0.97),
    ("CC(=O)CC(c1ccccc1)c1c(O)c2ccccc2oc1=O (stereo not given)", -0.89),
    ("CC(=O)Nc1ccc(O)cc1", 0.00),
    ("CNCCCN1c2ccccc2CCc2ccccc21", 1.18),
    ("C[C@@H](O)[C@H]1C(=O)N2C(C(=O)O)=C(SCCOC(N)=O)S[C@H]12", -0.52),
    ("NS(=O)(=O)c1cc(C2(O)NC(=O)c3ccccc32)ccc1Cl (stereo not given)", 0.59),
    ("CC(NCCc1ccc(O)cc1)C(O)c1ccc(O)cc1 (stereo not given)", 0.64),
    ("Nc1ccn([C@@H]2CO[C@H](CO)O2)c(=O)n1", 0.00),
    ("CCn1cc(C(=O)O)c(=O)c2cc(F)c(N3CCNCC3)nc21", 0.30),
]

---

Known half-life of a selection of compounds
test: clinical; conditions: human, in vivo, iv, t1/2
measured.endpoint: half-life

# compound, readout.value
records = [
    ("CN1C[C@H](C(=O)N[C@]2(C)O[C@@]3(O)[C@@H]4CCCN4C(=O)[C@H](Cc4ccccc4)N3C2=O)C=C2c3cccc4[nH]cc(c34)C[C@H]21", "2.1 h"),
    ("NCCCCCC(=O)O", "4.9 h"),
    ("CC(C)[C@H]1CC[C@H](C(=O)N[C@H](Cc2ccccc2)C(=O)O)CC1 [NATEGLINIDE]", "1.5 h"),
    ("CCCc1nn(C)c2c(=O)[nH]c(-c3cc(S(=O)(=O)N4CCN(C)CC4)ccc3OCC)nc12", "3.9 h"),
    ("CCCCN1CCCCC1C(=O)Nc1c(C)cccc1C (stereo not drawn)", "3.1 h"),
    ("NCC[C@H](O)C(=O)N[C@@H]1C[C@H](N)[C@@H](O[C@H]2O[C@H](CN)[C@@H](O)[C@H](O)[C@H]2O)[C@H](O)[C@H]1O[C@H]1O[C@H](CO)[C@@H](O)[C@H](N)[C@H]1O", "2.4 h"),
    ("CN(C)/N=N/c1[nH]cnc1C(N)=O", "6.2 h"),
    ("CSc1ccc(C(=O)c2[nH]c(=O)[nH]c2C)cc1", "1 h"),
]

---

test: clinical; details: human, in vivo, iv, t1/2
Known half-life of a selection of compounds

# compound, half-life
measured = [
    ("C/C=C/C[C@@H](C)C(=O)[C@H]1C(=O)N[C@@H](C(C)C)C(=O)N(C)CC(=O)N(C)[C@@H](CC(C)C)C(=O)N[C@@H](C(C)C)C(=O)N(C)[C@@H](CC(C)C)C(=O)N[C@@H](C)C(=O)N[C@H](C)C(=O)N(C)[C@@H](CC(C)C)C(=O)N(C)[C@@H](CC(C)C)C(=O)N(C)[C@@H](C(C)C)C(=O)N1C", "10 h"),
    ("CN1CC[C@H](c2c(O)cc(O)c3c(=O)cc(-c4ccccc4Cl)oc23)[C@H](O)C1", "5.2 h"),
    ("COc1cc([C@@H]2c3cc4c(cc3[C@@H](O[C@@H]3O[C@@H]5CO[C@@H](C)O[C@H]5[C@H](O)[C@H]3O)[C@H]3COC(=O)[C@H]23)OCO4)cc(OC)c1O [ETOPOSIDE]", "5.7 h"),
    ("CCOC(=O)C1=C(C)NC(C)=C(C(=O)OC)C1c1cccc([N+](=O)[O-])c1 (centres undefined)", "8.2 h"),
    ("CO/N=C(\\C(=O)N[C@@H]1C(=O)N2C(C(=O)O)=C(C)CS[C@H]12)c1csc(N)n1", "2.1 h"),
    ("COc1ccc2c(c1)N(C[C@H](C)CN(C)C)c1ccccc1S2", "30 h"),
    ("CCN[C@@H]1C[C@H](N)[C@@H](O[C@H]2OC(CN)=CC[C@H]2N)[C@H](O)[C@H]1O[C@H]1OC[C@](C)(O)[C@H](NC)[C@H]1O", "3.2 h"),
    ("O=C1c2ccccc2S(=O)(=O)N1CCCCNC[C@H]1CCc2ccccc2O1 [REPINOTAN]", "1.2 h"),
    ("CC1(C)S[C@@H]2[C@H](NC(=O)[C@H](NC(=O)N3CCN(S(C)(=O)=O)C3=O)c3ccccc3)C(=O)N2[C@H]1C(=O)O", "1.2 h"),
    ("O=C1Cc2cc(CCN3CCN(c4nsc5ccccc45)CC3)c(Cl)cc2N1", "3.1 h"),
    ("Cc1nnc(SCC2=C(C(=O)O)N3C(=O)[C@@H](NC(=O)[C@H](O)c4ccccc4)[C@H]3SC2)s1", "1 h"),
    ("O=C1CN=C(c2ccccn2)c2cc(Br)ccc2N1", "21 h"),
    ("N=C(N)c1ccc(C(=O)N[C@@H](Cc2ccc(O)cc2)C(=O)N2CCC(OCC(=O)O)CC2)cc1", "2.1 h"),
    ("CCCC(CCC)C(=O)O", "12 h"),
]
